Origin of measurements: ChEMBL document CHEMBL5230132

# EXPERIMENTAL_TARGET: UniProt:P34972
# ASSAY_OVERVIEW: Displacement of [3H]CP55940 from CB2 receptor (unknown origin) expressed in HEK cell membrane measured after 90 mins by competitive binding assay
# Format: cell membranes
PROPERTY_NAME: Ki (nM)
Provide the reading as a plain figure in nM.

CN1CCCCC1Cn1cc(C(=O)c2cc([N+](=O)[O-])ccc2I)c2ccccc21 (stereo unspecified) yielded Ki of 7

###

# EXPERIMENTAL_TARGET: Cannabinoid receptor 2 (Homo sapiens, UniProt P34972)
# Sequence (P34972 whole entry): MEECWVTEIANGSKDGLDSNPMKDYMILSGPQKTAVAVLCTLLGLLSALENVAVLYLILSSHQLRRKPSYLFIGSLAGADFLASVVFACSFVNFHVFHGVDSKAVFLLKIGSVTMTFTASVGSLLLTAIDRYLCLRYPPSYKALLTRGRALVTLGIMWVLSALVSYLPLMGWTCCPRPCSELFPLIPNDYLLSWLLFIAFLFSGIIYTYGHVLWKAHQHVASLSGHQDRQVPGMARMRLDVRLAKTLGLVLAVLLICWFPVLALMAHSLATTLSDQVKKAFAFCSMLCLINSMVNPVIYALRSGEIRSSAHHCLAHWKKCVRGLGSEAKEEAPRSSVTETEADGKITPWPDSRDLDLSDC
# ASSAY_OVERVIEW: Binding affinity to CB2 receptor (unknown origin) assessed as inhibition constant
PROPERTY_NAME: Ki (nM)
Give just the number in nM; leave the unit off.

The reported Cannabinoid receptor 2 (Homo sapiens, UniProt P34972) Ki of CCCn1c(C)c(C(=O)c2ccc3ccccc3c2)c2ccccc21 is 13.8
